tested on: NCI/ADR-RES; test: NCI tumour cell line growth inhibition, 48 h
Activity calls are given as the source filed them. Rule as the data show it: active = GI50 up to about 1.1 µM and inactive = higher.
The following molecules are listed with their measured GI50 values.
Recorded Metric: GI50

- Nn1c(S)nnc1CCCCCCCCc1nnc(S)n1N: > 100 µM (inactive)
- CC(=O)Nc1ccc(C(=O)NN2C(=O)CSC2c2ccc(O)cc2)cc1 (centres undefined): > 100 µM (inactive)
- Nc1ccc(-c2nc3cc(F)ccc3s2)cc1I: 18.8 µM (inactive)
- Cc1cc(C)c(S(=O)(=O)N2CCCN(S(=O)(=O)c3c(C)cc(C)cc3C)OCCCO2)c(C)c1: > 100 µM (inactive)
- O=C1OC(OC/C(Br)=C(\Br)COC2OC(=O)C(Cl)=C2Cl)C(Cl)=C1Cl (centres undefined): 4.92 µM (inactive)
- CC1=NN(c2nc(N)nc(CC#N)n2)C(C)(C)C1: > 100 µM (inactive)
- COc1cc(/C=C2\C[C@H]3[C@@H]4CC=C5C[C@@H](O)CC[C@]5(C)[C@H]4CC[C@]3(C)C2=O)cc(OC)c1OC: 27.5 µM (inactive)
- CCCCC(C)(C/C=C/[C@@H]1[C@@H](C(O)CCCCCC(=O)OC)C(=O)C[C@H]1O[Si](C)(C)C(C)(C)C)O[Si](C)(C)C (some centres undefined): > 100 µM (inactive)
- O=C1C(Cl)=C(NCCc2ccc(O)cc2)C(=O)c2c(O)ccc(O)c21: 3.76 µM (inactive)

====

The following compounds are listed with their measured GI50 values.
system: RPMI-8226; assay: NCI tumour cell line growth inhibition, 48 h
Activity calls are given as the source filed them. Rule as the data show it: active = GI50 up to about 1.1 µM and inactive = higher.
Recorded Metric: GI50

* NN | 303 µM (inactive)
* N=C(N)NS(=O)(=O)c1ccc(NCCc2c3ccccc3nc3ccccc23)cc1 | 7.26 µM (inactive)
* COc1ccc(C[N+]23C(CC[C@H]2c2ccccc2)CC[C@H]3c2ccccc2)cc1 (stereo partly specified) | 2.8 µM (inactive)
* C=CCC(CCC(C)=O)(C(=O)OCC)C(=O)OCC | > 100 µM (inactive)
* COc1cc(/C=C2\C[C@H]3[C@@H]4CC=C5C[C@@H](O)CC[C@]5(C)[C@H]4CC[C@]3(C)C2=O)cc(OC)c1OC | 6.98 µM (inactive)
* O=C(/C=C/c1ccccc1)CCN1CCN(CCC(=O)/C=C/c2ccccc2)CC1 | > 100 µM (inactive)
* C[C@@]12C=CC3C/C(=N\C(N)=S)C=C(CCCC4OCCO4)[C@]3(CC1)C2 (stereo partly specified) | 16.2 µM (inactive)
* C[Si](C)(C)C(Sc1ccccc1)(Sc1ccccc1)Sc1ccccc1 | 41.7 µM (inactive)
* O=S(=O)(Cc1ccccc1)c1nnc(S(=O)(=O)c2ccc(Cl)cc2)s1 | 15.9 µM (inactive)
* CC1Cc2c(N)nc(NN)nc2NC1=O (stereo unspecified) | > 100 µM (inactive)
* COc1ccc(C2NC(=O)Nc3c2c(=O)oc2c3ccc3ccccc32)cc1 (stereo unspecified) | 43.3 µM (inactive)

====

test system: SK-MEL-5; experiment: NCI tumour cell line growth inhibition, 48 h
Calls of active or inactive are those of the source. No stated cut-off is given here; in the data, active = GI50 up to about 1.1 µM and inactive = higher.
The following molecules are listed with their measured GI50 values.
Recorded Metric: GI50

• O=C1/C(=C(/Br)I)c2ccccc2-c2ccccc21 = 16 µM (inactive)
• CSC1(CC(=O)N(C)C)C(=O)Nc2ccccc21 (stereo not given) = > 100 µM (inactive)
• N#C[C@](CO)(NC(=O)OCc1ccccc1)C(F)F = > 100 µM (inactive)
• CC1(c2cccc3c2C2(O)C=CC4(CCC32)OCCO4)OCCO1 (stereo not given) = > 100 µM (inactive)
• C[C@@H](CC(=O)O)OC1OC(COC(=O)C(C)(C)C)C(OC(=O)C(C)(C)C)C(OC(=O)C(C)(C)C)C1OC(=O)C(C)(C)C (stereo not given in full) = 29.6 µM (inactive)
• Cc1ccc2c(c1)nc1n2C(N)=Nc2ccccc2S1 = 28.2 µM (inactive)
• N[C@H](CCC(=O)NCP(=O)(O)O)C(=O)O = > 100 µM (inactive)
• Cn1cc2ccccc2c1-c1nc(F)nc(OCC(=O)[C@H]2CCC3[C@@H]4CCC5=CC(=O)CC[C@]5(C)C4[C@@H](O)C[C@@]32C)n1 (stereo not given in full) = 20.3 µM (inactive)
• NCCCN1CCN(c2ccccc2)CC1 = > 100 µM (inactive)
• CC(=O)Oc1ccc2cc(Oc3cc(Cl)c(Cl)cc3Cl)c(=O)oc2c1 = 11.9 µM (inactive)
